A short record of pKd observed with Lyn (Homo sapiens) follows.
Sequence (P07948 2-512): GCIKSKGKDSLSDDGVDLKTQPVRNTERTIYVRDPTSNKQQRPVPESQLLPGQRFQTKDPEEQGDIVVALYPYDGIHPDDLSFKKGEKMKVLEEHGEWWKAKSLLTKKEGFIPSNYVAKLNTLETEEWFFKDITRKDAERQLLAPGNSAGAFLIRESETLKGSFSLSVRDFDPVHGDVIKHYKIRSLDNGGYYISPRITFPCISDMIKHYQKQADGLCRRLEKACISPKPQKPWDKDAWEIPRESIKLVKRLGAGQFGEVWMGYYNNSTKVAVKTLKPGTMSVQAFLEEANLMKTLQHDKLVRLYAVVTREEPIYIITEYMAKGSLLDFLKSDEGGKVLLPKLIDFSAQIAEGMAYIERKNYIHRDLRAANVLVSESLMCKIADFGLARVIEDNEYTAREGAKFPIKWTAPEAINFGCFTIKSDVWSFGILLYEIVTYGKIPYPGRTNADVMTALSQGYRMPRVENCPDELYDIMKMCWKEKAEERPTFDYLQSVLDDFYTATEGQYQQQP
pKd: −log10 of the molar value.
readout: pKd

>>> df
                         substance_smiles         target_desc  readout  observed_measurement
0  CC(C)Nc1ccnc(NCc2cccnc2Oc2ccc(F)cc2)n1  Lyn (Homo sapiens)      pKd                  4.13
1      Cc1cnc(NCc2ccccc2-n2ccnc2)nc1N(C)C  Lyn (Homo sapiens)      pKd                  3.74

* * *

- target desc: Src (Homo sapiens, UniProt P12931)
- Sequence (P12931 2-536): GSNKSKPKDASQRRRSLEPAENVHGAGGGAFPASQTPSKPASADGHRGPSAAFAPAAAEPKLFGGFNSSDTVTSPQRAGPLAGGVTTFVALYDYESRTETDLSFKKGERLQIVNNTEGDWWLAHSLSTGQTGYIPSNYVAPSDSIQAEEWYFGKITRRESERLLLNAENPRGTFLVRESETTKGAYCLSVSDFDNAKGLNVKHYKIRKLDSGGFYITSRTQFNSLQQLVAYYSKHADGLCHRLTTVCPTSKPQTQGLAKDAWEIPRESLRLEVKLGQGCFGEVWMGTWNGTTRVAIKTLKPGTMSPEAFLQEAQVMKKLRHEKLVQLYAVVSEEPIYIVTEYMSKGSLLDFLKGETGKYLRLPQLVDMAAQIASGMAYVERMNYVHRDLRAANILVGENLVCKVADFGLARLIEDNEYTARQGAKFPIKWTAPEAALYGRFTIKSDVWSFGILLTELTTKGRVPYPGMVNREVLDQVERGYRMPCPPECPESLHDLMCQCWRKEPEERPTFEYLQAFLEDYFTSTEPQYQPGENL
pKd: −log10 of the molar value.
readout: pKd

>>> print(df.to_string())
                     substance_smiles                         target_desc  readout  observed_measurement
0  Cc1cnc(NCc2ccccc2-n2ccnc2)nc1N(C)C  Src (Homo sapiens, UniProt P12931)      pKd                  3.63
